tested on: TMD-8 cell p-IF4E; experiment: p-eIF4E Signaling Cellular Assay (CisBio HTRF) in TMD-8 cells; assay type: cell-based; conditions: Homo sapiens, TMD8, 40 min, 40 min treatment
The entries below are paired with their reported IC50.
endpoint: IC50

>>> print(df.to_string())
                                   compound             target     assay_value
0  Cc1cc(Nc2cc(Nc3ccn(C(F)(F)F)n3)ncn2)[n+]([O-])c2c1C(=O)NC21CCCCC1 [Compound XXIX-AF]  TMD-8 cell p-IF4E    0.1 to 10 nM
1  Cn1ccc(Nc2cc(Nc3cc4c(s3)C(=O)NC43CCCCC3)ncn2)n1 [Compound XXIII-P]  TMD-8 cell p-IF4E    10 to 100 nM
2  Cc1cc(Nc2cc(Nc3ccc(N4CCCCC4)cn3)ncn2)[n+]([O-])c2c1C(=O)NC21CCCCC1 [Compound XXIX-AAM]  TMD-8 cell p-IF4E    0.1 to 10 nM
3  Cc1cc(Nc2cc(Nc3ccn(C)n3)ncn2)[n+]([O-])c2c1C(=O)NC21CCCCC1 [Compound XXIX-K]  TMD-8 cell p-IF4E    0.1 to 10 nM
4  O=C1NC2(CCCCC2)c2cc(Nc3cc(NC(=O)C4CCCC4)ncn3)sc21 [Compound XX-D]  TMD-8 cell p-IF4E  100 to 1000 nM
5  O=C1NC2(CCCCC2)c2cc(Nc3ncnc4c3CCN4)sc21 [Compound XXXI]  TMD-8 cell p-IF4E  100 to 1000 nM

====

pIC50: −log10 of the molar value.
Observed pIC50 values for MNK2 (Homo sapiens (Human), UniProt Q9HBH9) are listed in what follows.
endpoint: pIC50

>>> df
                                   compound                                    target  endpoint    assay_value
0  CCN1CCN(c2ccc(Nc3cc(Nc4cc(C)c5c([n+]4[O-])C4(CCCCC4)NC5=O)ncn3)nc2)CC1 [Compound XXIX-AAO]  MNK2 (Homo sapiens (Human), UniProt Q9HBH9)     pIC50  8.00 to 10.00
1  Cc1cc(Nc2cc(N[C@H]3CCNC3)ncn2)[n+]([O-])c2c1C(=O)NC21CCCCC1 [Compound XXIX-S]  MNK2 (Homo sapiens (Human), UniProt Q9HBH9)     pIC50   7.00 to 8.00
2  O=C1NC2(CCCCC2)c2nc(Nc3cc(N[C@H]4C[C@@H](O)C4)ncn3)sc21 [Compound XXVIII-O]  MNK2 (Homo sapiens (Human), UniProt Q9HBH9)     pIC50  8.00 to 10.00
3  CN(C)[C@H]1CCN(C(=O)C2CCc3c(sc4ncnc(Nc5cc6c(s5)C(=O)NC65CCCCC5)c34)C2)C1 (stereo partly drawn) [Compound XXV]  MNK2 (Homo sapiens (Human), UniProt Q9HBH9)     pIC50   7.00 to 8.00
4  Cc1cc(Nc2cc(Nc3ccc(N4CCNCC4)cn3)ncn2)[n+]([O-])c2c1C(=O)NC21CCCCC1 [Compound XXIX-AAL]  MNK2 (Homo sapiens (Human), UniProt Q9HBH9)     pIC50  8.00 to 10.00
5  Cc1cc(Nc2cc(Nc3ccnn3C3CCNCC3)ncn2)[n+]([O-])c2c1C(=O)NC21CCCCC1 [Compound XXIX-AAR]  MNK2 (Homo sapiens (Human), UniProt Q9HBH9)     pIC50  8.00 to 10.00
6  O=C1NC2(CCCCC2)c2cc(Nc3cc(N4CCOCC4)ncn3)sc21 [Compound XXIII-K]  MNK2 (Homo sapiens (Human), UniProt Q9HBH9)     pIC50         < 6.00
7  Cc1cc(Nc2ncnc3[nH]ncc23)[n+]([O-])c2c1C(=O)NC21CCCCC1 [Compound XXIX-AAH]  MNK2 (Homo sapiens (Human), UniProt Q9HBH9)     pIC50   7.00 to 8.00
8  O=C1NC2(CCCCC2)c2cc(Nc3cc(N4CCCCC4)ncn3)sc21 [Compound XXIII-E]  MNK2 (Homo sapiens (Human), UniProt Q9HBH9)     pIC50         < 6.00

Origin of values: patent US20240092799A1
